Before we begin, note that these pIC50 values for Non-receptor tyrosine-protein kinase TYK2 (Homo sapiens) originate from several publications.
pIC50: −log10 of the molar value.

CCOC(=O)Cn1cc(Nc2ncc3ccn(CC4CCCCC4(F)F)c3n2)cn1 (centres unmarked) = > 7.00
NC(=O)c1cnc(Nc2ccc3c(c2)NC[C@H](O)CO3)nc1NC1CC1 = > 8.00
Cc1cc(Nc2ncc(C)c(N3CC(CC#N)(N4CCC4)C3)n2)sn1 = > 8.00
CC(C)CNc1nc(-c2cc(F)c(O)cc2CC(F)(F)F)nc2[nH]ncc12 = 5.13
CC(C)S(=O)(=O)N1CC(CC#N)(n2cc(-c3nc(-c4cnn(C)c4)cc4nccn34)cn2)C1 = 7.00 to 8.00

Prompt line: Need pIC50, item `CCC(CC)n1cc(-c2nc(-c3cnn([C@H]4C[C@H](C(=O)N(C)C)C4)c3)cn3nccc23)cn1`
Response line: 6.00 to 7.00

Prompt line: Return reported pIC50; argument: `CCC(CC)n1cc(-c2nc(-c3cnn(C4CN(C(=O)[C@H](C)O)C4)c3)cn3nccc23)cn1`
Response line: 7.00 to 8.00

Prompt line: Item under review: `CC[C@H](Cn1ccc2cnc(Nc3cnn(CC(=O)O[C@@H]4CCN(C)C4)c3)nc21)C(C)C` . Reported pIC50?
Response line: > 7.00

Prompt line: What value of pIC50 has been reported for the following compound? `CCC(CC)n1cc(-c2nc(-c3cnn(CCN4CCC(O)CC4)c3)cn3nccc23)cn1`
Response line: 7.00 to 8.00

Prompt line: Requested read-out: pIC50. Entry: `Cc1nc2cc(Nc3ncc(Cl)c(NC4CCN(c5ccc(C#N)cn5)CC4)n3)ccn2n1`
Response line: 8.70

Prompt line: Request the reported pIC50 associated with Cn1cc(-c2cc3nccn3c(-c3cnn(C(CC=C(F)F)C4CC4)c3)n2)cn1 (centres unmarked)
Response line: > 8.00

* * *

Non-receptor tyrosine-protein kinase TYK2 (Homo sapiens, UniProt P29597) IC50, compiled from various sources.

Some compounds with recorded IC50:
N#CCC(C1CC1)n1cc(-c2nc(-c3cncs3)cc3nccn23)cn1 (stereo not drawn) = 10 to 100 nM
Cc1cc(Nc2ncc(C)c(N3CC(CC#N)C3)n2)sn1 = < 10 nM

Query compound follows.
Prompt line: // lookup IC50 | system=Non-receptor tyrosine-protein kinase TYK2 (Homo sapiens, UniProt P29597) | key= `CC(C)(O)c1cnc(Nc2cc3ncccc3c(N[C@@H]3C[C@H]4CC[C@@H](C3)N4CCC#N)n2)s1`
Response line: > 100 nM

* * *

Reported IC50 against UniProt P29597, gathered from multiple publications, appears below.

// solved cases for IC50 follow
Cc1cc2ccc1-c1ccnc(n1)Nc1ccc(OC3CCCCC3)c(c1)COCCCCNC2=O = 1000 to 10000 nM
N#CCC(=O)Nc1cccc(-c2cnc3ccccc3n2)c1 = > 20000 nM

Prompt line: For the record `C=C(C)C(=O)Nc1cc(Nc2ncc(Cl)c(O[C@@H]3CO[C@H]4[C@@H]3OC[C@H]4O)n2)ccc1N1CCC(N2CCN(C)CC2)CC1` , what value of IC50 is listed for UniProt P29597?
Response line: 312 nM

Prompt line: Return IC50 measured with UniProt P29597 given this molecule: `Cc1cnc(-c2cnc3[nH]ccc3c2N[C@@H]2CCCN(CCC#N)C2)o1`
Response line: 10 to 100 nM
